# assayed_system: T1, cTnI quality control product recombinant protein (human, UniProt P19429 1-210, limits assumed)
# T1 construct: the assay paragraphs only say cTnI; also called cardiac troponin I; cTnI antigen
# T1 sequence (P19429 whole entry): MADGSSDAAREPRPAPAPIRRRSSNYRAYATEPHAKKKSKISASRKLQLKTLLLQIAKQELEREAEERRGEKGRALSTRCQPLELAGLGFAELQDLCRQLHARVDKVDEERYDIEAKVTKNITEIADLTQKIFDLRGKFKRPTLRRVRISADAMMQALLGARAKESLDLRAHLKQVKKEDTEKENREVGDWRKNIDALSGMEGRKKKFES
# assay_name: capture ELISA, antibody 4.115 ng/ml, cTnI 0.15 ug/ml
quantity_name: OD 450 nm (OD)
Express your answer in OD, writing the number without its unit.

Query :: Name the reported OD 450 nm value associated with the binder Mutation 1 (antibody, V domains shown, other CDR sites as WT) VH: QVQLQQSGTELAKPGASVKFSCKASGYTFSTYWMYWIKQRPGQGLEWIGYLNPSSGHTDYNQRFKDKATLTADKSSSTAYMQLNSLTSEDSAVYYCARKYFGPFGMDYWGQGTSVTVSS VL: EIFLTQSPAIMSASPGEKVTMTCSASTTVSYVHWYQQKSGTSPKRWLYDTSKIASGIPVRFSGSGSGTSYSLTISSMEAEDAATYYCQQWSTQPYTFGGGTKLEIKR
Result :: 1.97
